# Test system: S. typhimurium/E. coli reverse mutation, colony counts
# Assay notes: Bacterial reverse mutation test (aka Ames test) summary data;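 note: His-minus Salmonella and trp-minus E. coli WP2 uvrA pKM101 with or without liver S9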
Records with an inconclusive call do not appear. Active and inactive are the calls of the source. The rule behind the calls is not given here.
Your response should consist of one outcome taken from 1 = active, 0 = inactive

Consider the following illustrative entries.
{"Smiles structure": "OCCC(F)(F)C(F)(F)C(F)(F)C(F)(F)C(F)(F)C(F)(F)C(F)(F)C(F)(F)F", "Subject of test": "S. typhimurium/E. coli reverse mutation, colony counts", "Discrete label": 0}
{"Smiles structure": "O=[N+]([O-])c1cc([As](=O)(O)O)ccc1O", "Subject of test": "S. typhimurium/E. coli reverse mutation, colony counts", "Discrete label": 0}
{"Smiles structure": "O=C(Nc1ccccc1)c1cc2ccccc2c(N=Nc2cc(Cl)ccc2Cl)c1O", "Subject of test": "S. typhimurium/E. coli reverse mutation, colony counts", "Discrete label": 1}
{"Smiles structure": "CCCCCCCCCCCCCC(=O)O", "Subject of test": "S. typhimurium/E. coli reverse mutation, colony counts", "Discrete label": 0}
{"Smiles structure": "NCP(=O)(O)O", "Subject of test": "S. typhimurium/E. coli reverse mutation, colony counts", "Discrete label": 0}

Query: Test call for this molecule, please: CCCC[N+](=O)[O-]
Result: 0

Query: Test call for this molecule, please: Cc1cc(-c2ccc(N=Nc3c(S(=O)(=O)O)cc4cc(S(=O)(=O)O)cc(O)c4c3O)c(C)c2)ccc1N=Nc1c(S(=O)(=O)O)cc2cc(S(=O)(=O)O)cc(O)c2c1O
Result: 0

Query: Test call for this molecule, please: C=CC(=O)NCCNC(=O)C=C
Result: 1
